Exercise: for every item that follows, state its recorded SPOT peptide array binding signal intensity.
target: CaBzz1-D2; assay: SPOT peptide array binding signal intensity (averaged, normalized) (arbitrary units (background-subtracted, floor 0; scale differs between SH3 domains)); higher = stronger binding of the SH3 domain to the peptide
Answer with the value's number alone.

Query: SPOT peptide array binding signal intensity; subject: LKVTPGRRAPTISKI
148

Query: SPOT peptide array binding signal intensity; subject: GLRRARYKFPGQQKI
69

Query: SPOT peptide array binding signal intensity; subject: LKPPIGRPPKFPKSP
165

Query: SPOT peptide array binding signal intensity; subject: PSRRDSLSIPRAVDA
93

Query: SPOT peptide array binding signal intensity; subject: KKIRLIFTYPSTVGR
99.2

Query: SPOT peptide array binding signal intensity; subject: RSVKRPRRAPRPVVS
165

Query: SPOT peptide array binding signal intensity; subject: NTMKKRPAPPSLPSL
952
